Literature-derived IC50 for Cytochrome P450 2C19 (Homo sapiens) follows.

Query string: Entry "COc1cnc(C(=O)Nc2ccc(F)c([C@@]3(C)N=C(N)O[C@H](C(F)F)[C@@H]3C)c2)cn1" has what IC50?
Result string: ≥ 20 µM

Query string: Would you kindly repeat that for "CO[C@H]1[C@@H](CF)OC(N)=N[C@]1(C)c1cc(NC(=O)c2ncc(Cl)cc2Cl)ccc1Cl" ?
Result string: ≥ 20 µM

Query string: Would you kindly repeat that for "CC(C)(O)CNc1ncnc2[nH]cc(C(=O)c3ccc(Nc4ccc(C5CC5)nc4)nc3F)c12" ?
Result string: 5 to 10 µM

Query string: Would you kindly repeat that for "COc1cc2c(NC3CCS(=O)(=O)CC3)nc(N3CCCN(C)CC3)nc2cc1OCCCN1CCCC1" ?
Result string: > 100 µM

----------
Literature-derived IC50 for Cytochrome P450 2C19 (Homo sapiens, UniProt P33261) follows.

Query string: Entry "O=C(c1ccc(Nc2ccc(C3CC3)nc2)nc1F)c1c[nH]c2ncccc12" has what IC50?
Result string: 5 to 10 µM

Query string: Would you kindly repeat that for Cc1nc(SC(C(=O)c2c[nH]c3ccccc23)c2ccccc2)sc1CC(N)=O (racemic) ?
Result string: 8.3 µM

Query string: Would you kindly repeat that for "C[C@H]1SC(N)=N[C@](C)(c2cc(NC(=O)c3cnc(OC(F)F)cn3)ccc2F)[C@H]1F" ?
Result string: ≥ 20 µM

Query string: Would you kindly repeat that for "CCc1ccc(Nc2ccc(C(=O)c3c[nH]c4ncnc(NC(C)C)c34)c(F)n2)cn1" ?
Result string: > 10 µM

----------
Literature-derived IC50 for Cytochrome P450 2C19 (Homo sapiens, UniProt P33261) follows.

Query string: Observed IC50 on Cytochrome P450 2C19 (Homo sapiens, UniProt P33261) for "C#Cc1ccnc2[nH]cc(C(=O)c3c(F)ccc(NS(=O)(=O)c4ccc(C(F)(F)F)cc4)c3F)c12" , please.
Result string: > 10 µM

Query string: Would you kindly repeat that for "COc1cc(Oc2ccc(/N=c3\[nH]c(=O)n(C[C@H](C)C(=O)O)c(=O)n3Cc3ccc(Cl)cc3)cc2)cc(F)n1" ?
Result string: > 20 µM

Query string: Would you kindly repeat that for "CN1C(=O)N(c2cccc(C(F)(F)F)c2)C2=C(C(=O)CC2)[C@H]1c1ccc(C#N)cc1-c1ccc(=O)n(C)c1" ?
Result string: > 50 µM

Query string: Would you kindly repeat that for C[C@@H](c1ccccc1-c1ccccc1)n1cncc1C(=O)N1CCC2NCCO[C@@H]2C1 (stereo partly shown) ?
Result string: > 10 µM

Query string: Would you kindly repeat that for "CO[C@@H]1CN(C2CCN(C(=O)c3cncn3[C@@H](C)c3ccccc3-c3ccc(F)cc3)CC2)C[C@H]1O" ?
Result string: > 10 µM

Query string: Would you kindly repeat that for C[C@@H]1CCc2c(Oc3c(Cl)cc(-n4nc(C#N)c(=O)[nH]c4=O)cc3Cl)n[nH]c(=O)c21 (single isomer, unassigned) ?
Result string: > 50 µM

Query string: Would you kindly repeat that for "Fc1nc(Nc2ccc(C3CC3)nc2)ccc1Cc1c[nH]c2ncnc(NCC(F)(F)F)c12" ?
Result string: < 5 µM

----------
pIC50: −log10 of the molar value.
Literature-derived pIC50 for Cytochrome P450 2C19 (Homo sapiens, UniProt P33261) follows.

Query string: Entry "CCc1ccc(Nc2ccc(C(=O)c3c[nH]c4ncnc(NCCOC)c34)c(F)n2)cn1" has what pIC50?
Result string: < 5.00

Query string: Would you kindly repeat that for "CC(C)Oc1ccc(S(=O)(=O)N2C[C@@H](C)[C@@H](n3nc(CC(=O)O)c4ccc(F)cc43)C2)c(F)c1" ?
Result string: < 4.70

Query string: Would you kindly repeat that for "O=C(OCOC(=O)[C@H]1CCCN1C(=O)CCCCC(=O)N1CCC[C@@H]1C(=O)OCOC(=O)C1CCOCC1)C1CCOCC1" ?
Result string: < 4.48

Query string: Would you kindly repeat that for "CCOc1ccc(Nc2ccc(C(=O)c3c[nH]c4ncnc(OC)c34)c(F)n2)cn1" ?
Result string: < 5.00
